Where these numbers come from: patent US20120040976A1

Experiment: Chemical stability (H2O, pH 7.4)
Format: physicochemical
Settings: water; H2O; read-out: Chemical stability t1/2 H2O (converted)
attribute_measured: half-life (h)
Field: numeric (h). Do not append units.

Answered cases to consult:
{"columns": ["compound", "unit_descriptor", "half-life"],
 "data": [
  ["NCCCCC(N)C(=O)Oc1ccc(/C=C/C(=O)/C=C(O)/C=C/c2ccc(OC(=O)C(N)CCCCN)cc2)cc1 (stereo not shown) [Compound 34]", "h", 0.17],
  ["O=C(/C=C(O)/C=C/c1cccc(O)c1)/C=C/c1cccc(O)c1 [Compound 19]", "h", 0.38],
  ["COc1cc(/C=C/C(=O)/C=C(O)/C=C/c2ccc(OC(=O)C(N)CCCCN)c(OC)c2)ccc1OC(=O)C(N)CCCCN (stereo not shown) [Compound 36]", "h", 0.17]
]}

Please examine the following record next.
[in] Give the reported half-life for this compound. O=C(/C=C(O)/C=C/c1ccc(O)cc1)/C=C/c1ccc(O)cc1 [Compound 1, reference compound]
[out] 1
